- System: HCT-116
- testName: NCI tumour cell line growth inhibition, 48 h
Calls of active or inactive are those of the source. No stated cut-off is given here; in the data, active = GI50 up to about 1.1 µM and inactive = higher.
reportedMetric: GI50

Fill blank: measured GI50 of the compound Cc1cc(C)n(C(=C(C(Cl)=C(Cl)Cl)[N+](=O)[O-])n2nc(C)cc2C)n1 is ____. 3.65 µM (inactive)

Fill in the blank: the reported GI50 of CCN(CC)CCC1CCCCN1CC(=O)N1c2cc(Cl)ccc2NC(=O)CC1C (stereo unspecified) is ____. > 100 µM (inactive)

Field request: GI50 | item: COc1cc(CNC2=NCCC2)cc(OC)c1OC 39.6 µM (inactive)

GET /values?readout=GI50&item= COC(=O)C(Cc1c[nH]c2ccccc12)NP(=O)(O)OCC1OC(n2ccc(N)nc2=O)C(O)C1O (stereo unspecified) > 100 µM (inactive)

GI50 for CC(=O)N/N=C1/CC[C@@]2(C)C(=CC[C@H]3C4CCC(C(C)CCCC(C)C)[C@@]4(C)CCC32)C1(C)C (stereo partly specified) ? 48.8 µM (inactive)

Any idea what GI50 was measured for COc1nc2c(c(=O)n1C)N=C(c1ccccc1)[C@H](C(CC(=O)c1ccccc1)c1ccccc1)C(c1ccccc1)N2 (stereo partly specified) ? 88.1 µM (inactive)

# get_value(readout='GI50', item= CC(C)(C)n1c(=O)[nH]c(=O)n1C(C)(C)C ) > 100 µM (inactive)

I am curious: what GI50 value has been reported for CC(=O)N1c2cc(/N=N/N(C)C)ccc2NC(=O)CC1C (stereo unspecified) ? > 100 µM (inactive)

Please look up its GI50: Oc1ccc2ccccc2c1/N=N\c1cccc2ccccc12 > 100 µM (inactive)

Return reported GI50; argument: O=C(CSc1nnc(Cc2ccccc2)o1)Nc1ccc(Cl)cc1[N+](=O)[O-] 14 µM (inactive)

What value of GI50 has been reported for the following compound? CCOC(=O)C(=O)Nc1c(F)cc(F)cc1Br > 100 µM (inactive)

###

- System: HOP-18
- testName: NCI tumour cell line growth inhibition, 48 h
Activity calls are given as the source filed them. Cut-off read from the data, not from the text of the source: active = GI50 up to about 1.1 µM and inactive = higher.
Entries and their GI50 values follow.

# example entries with known answers
COc1ccc2nc3cc(Cl)ccc3c(Sc3ccc(N)cc3)c2c1 | 12.2 µM (inactive)
COc1ccc2c(c1)c1ccc3c(c1n2C)C(=O)C=CC3=O | 12.2 µM (inactive)
CC(=O)OCc1c(O)nc2c(c1O)-c1ccccc1CC2 | 129 µM (inactive)
Cc1cc(Br)ccc1NC1=CC(=O)C(=O)c2ccccc21 | 16 µM (inactive)

Can you share its GI50? I mean this compound: COc1ccc(N2C(=O)/C(=C/c3ccc(N(CCC#N)CCC#N)cc3C)N=C2c2cc([N+](=O)[O-])ccc2Cl)cc1 > 100 µM (inactive)

Requested field: GI50. Item: CC(=O)OCC1OC(OC2CC3C(C)(C)C(OC(C)=O)CC[C@]3(C)C3CCC45CC4(CC[C@H]5C(C)CC(O)C4OC4(C)C)[C@]23C)C(O)C(O)C1O (stereo partly drawn) 2.2 µM (inactive)

Could you share which GI50 value was measured for O=C1/C(=C/c2ccccc2)CN(C(=O)Oc2ccc([N+](=O)[O-])cc2)C/C1=C\c1ccccc1 ? > 10 µM (inactive)

I would be grateful if you could share the reported GI50 for CN(C)CCNC(=O)c1cccc2ccc(-c3ccc(F)cc3)nc12 . 17.4 µM (inactive)

Source of measurements: ChEMBL document CHEMBL1201862
